System: HL-60(TB) leukemia
Assay: NCI-60 one-dose screen, 48 h (100 = growth as untreated, 0 = no growth, -100 = all killed)
Study Conditions: 10 µM unless noted
About 83,000 compounds went through this panel and 20% of them were active in at least one assay; those are over-represented in the sample as a whole.
Measured Quantity: growth (%)
Answer with a number only, understood to be in %.

Below, 8 molecules whose answers are already recorded.
(Q) Form field: reported growth of COc1ccc(CCNc2nc3c(c(=O)n(Cc4ccc(Br)cc4)c(=O)n3C)n2C)cc1OC
(A) 28.6

(Q) Please do the same for O=C(CCl)N(c1ccccc1)c1ccccc1 as well.
(A) 101

(Q) # repeat for Cc1nc(N)nc2c1CCC(Nc1ccccc1)S2 (centres undefined)
(A) 97.1

(Q) Check [2H]C([2H])([2H])Oc1cccc(/C=C/C(=O)/C=C(/C=C/c2cccc(OC([2H])([2H])[2H])c2OC([2H])([2H])[2H])OB(F)F)c1OC([2H])([2H])[2H] too.
(A) 60

(Q) And then Cc1cccc(C[C@H](NC(=O)Nc2ccc(Cl)cc2F)C(=O)N[C@@H]2C(=O)N3C[C@H](O)C[C@H]3C(=O)N3CCN(C)C[C@H]3C(=O)N[C@@H](C)C(=O)N3C[C@H](C)C[C@H]3C(=O)O[C@H]2C)c1 , what is it?
(A) 32.8

(Q) Consider next the molecule CCC(=O)c1ccc(O)c(OC)c1 in the same way.
(A) 102

(Q) Another molecule to look at: Clc1ccc(-c2n[nH]c3c2Cc2ccccc2-3)cc1Cl
(A) 100

(Q) Also CC(=O)Cc1cccnc1 , if possible.
(A) 82.4

Next:
(Q) Fill blank: measured growth of the molecule CCCCCCCCCCCCCCCCS(=O)(=O)Nc1cc(C(=O)NN)cc(C(=O)NN)c1 is ____.
(A) 35.8

###

# maps each entry to its growth
Test system: HL-60(TB) leukemia
Assay: NCI-60 one-dose screen, 48 h (100 = growth as untreated, 0 = no growth, -100 = all killed)
Study Conditions: 10 µM unless noted
Procedure: Growth inhibition of the HL-60(TB) human tumor cell line is measured as a screen for anti-cancer activity. Cells are grown in 96 well plates and exposed to the test compound for 48 hours. Compounds are tested at a single concentration, which is 10^-5 M for most compounds. The reported endpoint is percent growth (GI% or GIPRCNT), where numbers from 0 - 100% represent growth inhibition, and numbers from -100% - 0 represent cell death. For example, a value of 40 represents 60% growth inhibition. […]
The panel holds about 83,000 compounds, 20% with a hit somewhere; the sample as a whole holds those more often. Active and inactive are the calls of the source. The calls were made as follows: active = growth percent below 10; inactive = the rest.

(Q) Please tell me: growth of O=C(NS(=O)(=O)c1ccccc1)n1cc(-c2ccncc2)c(-c2ccc(Cl)c(O)c2)n1 , system HL-60(TB) leukemia?
(A) 94% (inactive)

(Q) Same again, this time with CC1(O)CCC2CC3OC3(C)CCC3OC3(C)CCC1C2(C)C (stereo unspecified)
(A) 120% (inactive)

(Q) Now give it for Nc1nnc2cc(F)ccc2n1 too.
(A) 107% (inactive)

(Q) Same again, this time with C=C(C)COC(=O)c1ccccc1C(=O)OCC1(C)CO1 (stereo unspecified)
(A) 133% (inactive)

(Q) Again, but for Nc1ccc(S(=O)(=O)c2ccc(NO)cc2)cc1
(A) 107% (inactive)

---
(Q) # value lookup — system HL-60(TB) leukemia, readout growth, item CCOc1cc2c(Cl)ncnc2c(OCC)c1OCC
(A) -16.4% (active)
